Target of assay: Ephrin type-B receptor 4 (Homo sapiens)
Sequence (P54760 whole entry): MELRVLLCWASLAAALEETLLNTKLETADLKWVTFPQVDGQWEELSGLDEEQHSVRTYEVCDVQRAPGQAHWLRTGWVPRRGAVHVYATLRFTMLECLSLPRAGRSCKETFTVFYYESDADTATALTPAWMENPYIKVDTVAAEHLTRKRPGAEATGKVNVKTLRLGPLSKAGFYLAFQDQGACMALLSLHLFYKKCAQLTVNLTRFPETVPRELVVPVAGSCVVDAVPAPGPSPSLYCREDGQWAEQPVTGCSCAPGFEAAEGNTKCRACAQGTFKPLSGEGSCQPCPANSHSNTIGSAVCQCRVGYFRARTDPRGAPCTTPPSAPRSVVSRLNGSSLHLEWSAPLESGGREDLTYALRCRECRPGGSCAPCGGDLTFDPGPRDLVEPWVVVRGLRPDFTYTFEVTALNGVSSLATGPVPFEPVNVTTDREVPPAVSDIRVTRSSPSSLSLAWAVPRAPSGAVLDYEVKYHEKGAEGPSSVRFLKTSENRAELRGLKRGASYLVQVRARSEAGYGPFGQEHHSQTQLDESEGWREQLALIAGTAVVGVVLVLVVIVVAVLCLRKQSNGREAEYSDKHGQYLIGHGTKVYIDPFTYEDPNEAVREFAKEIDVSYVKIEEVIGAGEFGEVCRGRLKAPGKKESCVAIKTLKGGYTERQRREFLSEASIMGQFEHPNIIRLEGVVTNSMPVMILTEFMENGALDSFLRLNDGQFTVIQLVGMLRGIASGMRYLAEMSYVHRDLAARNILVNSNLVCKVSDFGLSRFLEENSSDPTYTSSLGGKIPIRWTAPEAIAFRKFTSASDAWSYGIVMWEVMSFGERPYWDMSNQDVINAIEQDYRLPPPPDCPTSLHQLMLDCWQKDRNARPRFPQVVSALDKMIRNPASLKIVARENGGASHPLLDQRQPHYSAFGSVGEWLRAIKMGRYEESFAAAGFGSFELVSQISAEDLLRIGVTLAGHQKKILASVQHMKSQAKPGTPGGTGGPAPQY
Protocol: Selectivity interaction (Kinase panel (33PanQinase(R) Activity Assay)) EUB0000877a EPHB4
pIC50: −log10 of the molar value.
Measurement label: pIC50

Quick one: pIC50 for CCC(=O)N1CC[C@H](Nc2ncnc3c2CN(c2cnc(OC)c(C(F)(F)F)c2)CC3)C1 [LENIOLISIB] ? < 5.00

###

Target of assay: L-type calcium channel Cav1.2 (CACNA1C) (Homo sapiens, UniProt Q13936)
Protocol: Selectivity interaction (Eurofins CEREP Diversity Profile (receptors and ion channels)) EUB0000279b CACNA1C
Condition set: at 10 µM, read-out: % of control
Measurement label: activity (%)
Numbers only, in %.

So what activity did CC(=O)c1cc(-c2ccccc2OCC2CC2)c2ncccn12 get with L-type calcium channel Cav1.2 (CACNA1C) (Homo sapiens, UniProt Q13936)? 89

###

Target of assay: Bromodomain-containing protein 9 (Homo sapiens)
Sequence (Q9H8M2 whole entry): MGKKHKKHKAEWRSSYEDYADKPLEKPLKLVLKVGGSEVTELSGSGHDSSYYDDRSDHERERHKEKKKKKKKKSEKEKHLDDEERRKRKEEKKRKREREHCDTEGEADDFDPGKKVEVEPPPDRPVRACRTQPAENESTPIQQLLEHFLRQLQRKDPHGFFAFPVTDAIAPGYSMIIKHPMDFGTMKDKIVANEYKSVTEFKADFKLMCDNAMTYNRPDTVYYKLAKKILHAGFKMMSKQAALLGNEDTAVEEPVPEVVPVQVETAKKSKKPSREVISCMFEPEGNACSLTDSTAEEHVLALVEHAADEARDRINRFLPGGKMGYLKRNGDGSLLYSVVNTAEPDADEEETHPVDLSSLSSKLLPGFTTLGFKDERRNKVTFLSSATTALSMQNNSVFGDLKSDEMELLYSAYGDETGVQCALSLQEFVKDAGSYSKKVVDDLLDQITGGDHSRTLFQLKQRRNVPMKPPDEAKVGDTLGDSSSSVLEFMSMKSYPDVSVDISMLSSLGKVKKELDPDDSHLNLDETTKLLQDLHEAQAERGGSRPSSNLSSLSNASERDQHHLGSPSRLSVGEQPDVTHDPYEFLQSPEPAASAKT
Protocol: Selectivity interaction (ITC measurement) EUB0000233b BRD9
Measurement label: pKd
Answers are plain numbers, as −log10 of the molar value.

Quick one: pKd for CN(C)CCCOc1ccc(-c2cc(NCCCn3cccn3)nc(S(C)(=O)=O)n2)cc1 ? 5.96

###

Target of assay: Glycogen synthase kinase-3 alpha (Homo sapiens)
Sequence (P49840 whole entry): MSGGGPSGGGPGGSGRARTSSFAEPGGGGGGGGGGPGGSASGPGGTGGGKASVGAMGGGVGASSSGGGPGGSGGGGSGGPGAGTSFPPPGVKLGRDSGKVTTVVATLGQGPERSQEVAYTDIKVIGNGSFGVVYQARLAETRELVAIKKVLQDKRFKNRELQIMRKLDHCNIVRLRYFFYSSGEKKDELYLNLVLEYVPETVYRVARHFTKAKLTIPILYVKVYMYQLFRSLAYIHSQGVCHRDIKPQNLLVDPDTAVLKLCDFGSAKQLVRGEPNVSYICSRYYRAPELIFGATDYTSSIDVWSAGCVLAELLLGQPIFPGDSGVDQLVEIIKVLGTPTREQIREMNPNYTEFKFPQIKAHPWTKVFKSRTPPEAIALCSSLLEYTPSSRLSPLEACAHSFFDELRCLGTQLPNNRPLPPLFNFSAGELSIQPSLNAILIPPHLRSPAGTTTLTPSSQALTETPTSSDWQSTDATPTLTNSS
Protocol: Selectivity interaction (Radiometric assay (Reaction Biology)) EUB0000121b GSK3A
Measurement label: pIC50
Give bare numbers, as −log10 of the molar value.

Quick one: pIC50 for COc1ccccc1-c1cc(Nc2cccc(CS(N)(=O)=O)c2)ncn1 ? 5.84

###

Protocol: Selectivity interaction (Ex-vivo activation of CD20+ B cells in cynomolgus (anti-IgM/IL-4 stimulated pAKT)) EUB0000877a PIK3CD
Measurement label: EC50 (nM)
Answers are plain numbers, in nM.

Quick one: EC50 for CCC(=O)N1CC[C@H](Nc2ncnc3c2CN(c2cnc(OC)c(C(F)(F)F)c2)CC3)C1 [LENIOLISIB] ? 140

###

Target of assay: Protein arginine N-methyltransferase 5 (Homo sapiens, UniProt O14744)
Protocol: Selectivity interaction (Scintillation proximity assays) EUB0000230b PRMT5
pIC50: −log10 of the molar value.
Measurement label: pIC50

Quick one: pIC50 for CNCCN1CCC(c2cc(CN(C)C(=O)c3cccc(Oc4ccccc4)c3)ccn2)CC1 ? < 5.00

###

Target of assay: Vascular endothelial growth factor receptor 2 (Homo sapiens)
Protocol: Selectivity interaction (Kinase panel (enzymatic assay)) EUB0000595a KDR
pIC50: −log10 of the molar value.
Measurement label: pIC50

Quick one: pIC50 for COCC(=O)NC/C=C/c1ccc2ncnc(Nc3ccc(Oc4ccc(C)nc4)c(C)c3)c2c1 [CP-724714] ? < 5.00

###

Target of assay: Serine/threonine-protein kinase PLK2 (Homo sapiens, UniProt Q9NYY3)
Sequence (Q9NYY3 whole entry): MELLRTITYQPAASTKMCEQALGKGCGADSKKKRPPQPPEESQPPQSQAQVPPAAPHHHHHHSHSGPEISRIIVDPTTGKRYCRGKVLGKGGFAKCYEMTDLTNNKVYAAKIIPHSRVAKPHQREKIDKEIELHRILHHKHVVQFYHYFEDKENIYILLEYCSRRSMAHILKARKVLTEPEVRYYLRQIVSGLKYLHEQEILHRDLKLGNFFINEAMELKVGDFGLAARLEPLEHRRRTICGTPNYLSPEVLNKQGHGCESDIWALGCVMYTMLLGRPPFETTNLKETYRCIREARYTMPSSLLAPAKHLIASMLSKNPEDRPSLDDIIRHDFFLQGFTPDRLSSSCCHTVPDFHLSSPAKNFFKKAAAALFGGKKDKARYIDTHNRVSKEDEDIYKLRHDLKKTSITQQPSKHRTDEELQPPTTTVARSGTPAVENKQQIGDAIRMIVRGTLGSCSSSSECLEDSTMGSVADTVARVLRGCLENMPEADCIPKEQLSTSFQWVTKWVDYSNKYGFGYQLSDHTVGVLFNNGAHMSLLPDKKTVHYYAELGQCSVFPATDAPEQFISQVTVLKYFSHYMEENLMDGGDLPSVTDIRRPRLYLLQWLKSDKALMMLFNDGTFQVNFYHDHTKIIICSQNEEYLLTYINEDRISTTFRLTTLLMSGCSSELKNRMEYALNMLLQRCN
pIC50: −log10 of the molar value.
Measurement label: pIC50

So what pIC50 did CCc1cccc(CC)c1NC(=O)c1nn(C)c2c1CCc1cnc(Nc3ccc(C(=O)NC4CCN(C)CC4)cc3OC(F)(F)F)nc1-2 get with Serine/threonine-protein kinase PLK2 (Homo sapiens, UniProt Q9NYY3)? < 5.00

###

Target of assay: Cyclin-dependent kinase 5/CDK5 activator 1 (Homo sapiens, UniProt Q00535)
Measurement label: IC50

So what IC50 did CCc1cccc(CC)c1NC(=O)c1nn(C)c2c1CCc1cnc(Nc3ccc(C(=O)NC4CCN(C)CC4)cc3OC(F)(F)F)nc1-2 get with Cyclin-dependent kinase 5/CDK5 activator 1 (Homo sapiens, UniProt Q00535)? > 10 µM

###

Target of assay: Mitogen-activated protein kinase kinase kinase kinase 4 (Homo sapiens, UniProt O95819)
Protocol: Selectivity interaction (Enzymatic assay) EUB0001199aCl MAP4K4
Measurement label: IC50
Your reply should be a number followed by the unit it is expressed in.

Quick one: IC50 for CN1Cc2nccc(-c3cn(C)nc3-c3ccc(F)cc3)c2C1=O ? 873 nM

###

Target of assay: MAP kinase-activated protein kinase 2 (Homo sapiens, UniProt P49137)
Sequence (P49137 whole entry): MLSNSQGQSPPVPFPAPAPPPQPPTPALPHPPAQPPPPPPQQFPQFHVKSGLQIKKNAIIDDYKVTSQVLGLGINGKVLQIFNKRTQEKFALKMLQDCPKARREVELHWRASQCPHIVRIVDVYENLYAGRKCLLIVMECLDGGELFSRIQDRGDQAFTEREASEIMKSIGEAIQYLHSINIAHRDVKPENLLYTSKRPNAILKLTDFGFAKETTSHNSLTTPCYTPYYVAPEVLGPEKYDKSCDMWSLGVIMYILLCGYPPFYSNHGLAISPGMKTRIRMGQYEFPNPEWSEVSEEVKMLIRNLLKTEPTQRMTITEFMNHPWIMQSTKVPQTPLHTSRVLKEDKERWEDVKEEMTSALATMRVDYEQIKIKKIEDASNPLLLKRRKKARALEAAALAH
Protocol: Selectivity interaction (Kinase panel (33PanQinase(R) Activity Assay)) EUB0000877a MAPKAPK2
Measurement label: IC50

Quick one: IC50 for CCC(=O)N1CC[C@H](Nc2ncnc3c2CN(c2cnc(OC)c(C(F)(F)F)c2)CC3)C1 ? > 10 µM

###

Target of assay: Homeodomain-interacting protein kinase 2 (Homo sapiens, UniProt Q9H2X6)
Sequence (Q9H2X6 whole entry): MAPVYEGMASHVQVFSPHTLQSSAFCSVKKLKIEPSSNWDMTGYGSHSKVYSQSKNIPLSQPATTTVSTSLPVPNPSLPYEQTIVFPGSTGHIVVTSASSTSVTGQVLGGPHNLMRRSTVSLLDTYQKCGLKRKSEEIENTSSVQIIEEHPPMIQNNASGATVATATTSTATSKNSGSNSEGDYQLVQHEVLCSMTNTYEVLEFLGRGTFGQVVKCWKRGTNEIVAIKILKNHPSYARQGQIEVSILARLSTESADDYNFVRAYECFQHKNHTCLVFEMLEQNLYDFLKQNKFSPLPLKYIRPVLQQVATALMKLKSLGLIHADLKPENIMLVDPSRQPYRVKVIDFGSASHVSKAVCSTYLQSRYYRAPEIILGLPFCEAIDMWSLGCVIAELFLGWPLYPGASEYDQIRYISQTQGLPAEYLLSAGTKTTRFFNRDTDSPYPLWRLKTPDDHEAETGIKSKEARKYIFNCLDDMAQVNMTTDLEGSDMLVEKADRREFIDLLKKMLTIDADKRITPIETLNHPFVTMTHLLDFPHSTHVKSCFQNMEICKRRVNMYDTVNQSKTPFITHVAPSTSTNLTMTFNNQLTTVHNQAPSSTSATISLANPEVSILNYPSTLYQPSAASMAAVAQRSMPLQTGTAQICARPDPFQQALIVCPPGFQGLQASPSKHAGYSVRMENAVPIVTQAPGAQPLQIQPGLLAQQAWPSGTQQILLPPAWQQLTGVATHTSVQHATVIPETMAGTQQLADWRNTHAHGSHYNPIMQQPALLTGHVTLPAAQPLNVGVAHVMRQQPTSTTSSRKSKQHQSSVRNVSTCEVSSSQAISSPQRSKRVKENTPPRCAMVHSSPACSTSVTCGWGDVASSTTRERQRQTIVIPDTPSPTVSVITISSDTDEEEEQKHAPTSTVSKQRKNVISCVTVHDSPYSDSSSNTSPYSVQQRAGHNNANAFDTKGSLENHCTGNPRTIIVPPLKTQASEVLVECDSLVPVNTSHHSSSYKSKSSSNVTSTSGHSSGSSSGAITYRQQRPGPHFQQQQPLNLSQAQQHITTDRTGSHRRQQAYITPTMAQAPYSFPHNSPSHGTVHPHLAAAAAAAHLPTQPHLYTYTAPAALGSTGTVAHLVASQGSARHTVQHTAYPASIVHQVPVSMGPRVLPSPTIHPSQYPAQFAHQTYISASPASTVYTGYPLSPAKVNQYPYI
Protocol: Selectivity interaction (NanoBRET assay (using HEK293T cells)) EUB0000008b HIPK2
Format: cell-based, HEK-293T
Measurement label: IC50

Quick one: IC50 for Cn1cc(-c2ccc3occ(-c4cccc(-c5ccncc5)c4)c3n2)cn1 ? > 10 µM

###

Target of assay: Tyrosine-protein kinase ABL2 (Homo sapiens)
Sequence (P42684 whole entry): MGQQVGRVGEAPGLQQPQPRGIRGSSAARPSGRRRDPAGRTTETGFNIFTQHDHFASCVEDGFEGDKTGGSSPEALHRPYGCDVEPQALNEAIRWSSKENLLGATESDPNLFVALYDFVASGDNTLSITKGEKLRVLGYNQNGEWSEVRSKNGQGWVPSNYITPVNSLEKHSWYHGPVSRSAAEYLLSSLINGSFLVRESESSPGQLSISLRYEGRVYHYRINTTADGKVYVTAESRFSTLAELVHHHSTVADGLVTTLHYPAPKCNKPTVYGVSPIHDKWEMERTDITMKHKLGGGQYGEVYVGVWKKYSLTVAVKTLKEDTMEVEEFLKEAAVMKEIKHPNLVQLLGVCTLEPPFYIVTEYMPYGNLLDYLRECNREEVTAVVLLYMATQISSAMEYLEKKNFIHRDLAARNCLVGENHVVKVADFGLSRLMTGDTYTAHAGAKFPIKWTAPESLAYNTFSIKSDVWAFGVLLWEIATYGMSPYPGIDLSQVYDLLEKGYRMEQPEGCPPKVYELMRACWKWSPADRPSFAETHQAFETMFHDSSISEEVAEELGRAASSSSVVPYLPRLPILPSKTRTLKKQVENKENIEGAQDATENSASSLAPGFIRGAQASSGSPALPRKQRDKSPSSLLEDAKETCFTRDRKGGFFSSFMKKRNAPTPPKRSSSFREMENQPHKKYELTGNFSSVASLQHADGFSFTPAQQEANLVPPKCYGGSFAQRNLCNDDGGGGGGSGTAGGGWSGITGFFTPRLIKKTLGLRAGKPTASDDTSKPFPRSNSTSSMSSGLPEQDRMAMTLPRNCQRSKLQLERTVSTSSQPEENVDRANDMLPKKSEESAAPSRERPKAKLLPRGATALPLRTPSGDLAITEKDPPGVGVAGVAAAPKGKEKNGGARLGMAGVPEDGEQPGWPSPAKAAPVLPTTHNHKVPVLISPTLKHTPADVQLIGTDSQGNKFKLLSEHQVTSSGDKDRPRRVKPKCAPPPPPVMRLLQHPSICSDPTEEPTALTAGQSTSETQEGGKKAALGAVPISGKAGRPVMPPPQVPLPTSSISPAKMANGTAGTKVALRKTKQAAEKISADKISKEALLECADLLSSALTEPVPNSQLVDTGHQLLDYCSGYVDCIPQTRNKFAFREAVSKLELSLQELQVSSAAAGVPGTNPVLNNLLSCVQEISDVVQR
Protocol: Selectivity interaction (Radiometric assay (Reaction Biology)) EUB0000121b ABL2
Measurement label: pIC50
Answers are plain numbers, as −log10 of the molar value.

Quick one: pIC50 for COc1ccccc1-c1cc(Nc2cccc(CS(N)(=O)=O)c2)ncn1 ? 5.44

###

Target of assay: Mitogen-activated protein kinase 14 (Homo sapiens)
Sequence (Q16539 whole entry): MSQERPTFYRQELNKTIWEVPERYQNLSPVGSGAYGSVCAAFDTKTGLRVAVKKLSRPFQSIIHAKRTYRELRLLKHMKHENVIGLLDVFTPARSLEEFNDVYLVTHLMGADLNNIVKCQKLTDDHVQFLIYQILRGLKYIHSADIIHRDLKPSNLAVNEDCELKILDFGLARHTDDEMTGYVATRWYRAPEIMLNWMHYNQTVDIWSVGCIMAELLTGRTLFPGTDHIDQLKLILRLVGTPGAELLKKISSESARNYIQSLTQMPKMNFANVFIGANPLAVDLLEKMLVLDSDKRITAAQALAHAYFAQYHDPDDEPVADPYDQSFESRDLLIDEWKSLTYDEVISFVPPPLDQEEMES
pIC50: −log10 of the molar value.
Measurement label: pIC50

Quick one: pIC50 for CCc1cccc(CC)c1NC(=O)c1nn(C)c2c1CCc1cnc(Nc3ccc(C(=O)NC4CCN(C)CC4)cc3OC(F)(F)F)nc1-2 ? < 5.00

###

Target of assay: Casein kinase II subunit alpha (Homo sapiens, UniProt P68400)
Sequence (P68400 whole entry): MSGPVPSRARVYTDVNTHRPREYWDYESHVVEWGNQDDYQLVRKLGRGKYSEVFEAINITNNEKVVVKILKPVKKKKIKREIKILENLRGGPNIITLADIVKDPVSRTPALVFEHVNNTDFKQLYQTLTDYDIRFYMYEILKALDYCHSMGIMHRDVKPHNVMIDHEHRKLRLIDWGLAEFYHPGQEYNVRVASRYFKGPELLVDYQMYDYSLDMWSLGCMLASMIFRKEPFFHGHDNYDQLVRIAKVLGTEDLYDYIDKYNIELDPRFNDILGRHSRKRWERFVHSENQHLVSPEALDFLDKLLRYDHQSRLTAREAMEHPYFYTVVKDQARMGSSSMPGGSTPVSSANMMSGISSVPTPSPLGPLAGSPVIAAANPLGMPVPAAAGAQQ
Protocol: Selectivity interaction (Kinase panel (Enzyme activity assay)) EUB0000612a CSNK2A1
Measurement label: IC50
Your reply should be a number followed by the unit it is expressed in.

Quick one: IC50 for CCc1cccc(CC)c1NC(=O)c1nn(C)c2c1CCc1cnc(Nc3ccc(C(=O)NC4CCN(C)CC4)cc3OC(F)(F)F)nc1-2 ? 5.7 µM
